# System: CAKI-1 renal
# measurement notes: NCI-60 one-dose screen, 48 h (100 = growth as untreated, 0 = no growth, -100 = all killed)
# run conditions: 10 µM unless noted
# Method: Growth inhibition of the CAKI-1 human tumor cell line is measured as a screen for anti-cancer activity. Cells are grown in 96 well plates and exposed to the test compound for 48 hours. Compounds are tested at a single concentration, which is 10^-5 M for most compounds. The reported endpoint is percent growth (GI% or GIPRCNT), where numbers from 0 - 100% represent growth inhibition, and numbers from -100% - 0 represent cell death. For example, a value of 40 represents 60% growth inhibition. […]
Compounds without any hit were thinned out: in the full panel of roughly 83,000, 20% have a hit. The source made the active and inactive calls. Rule for the calls: active = growth percent below 10; inactive = the rest.
readout label: growth

1. N/C(=N\C(N)=N\c1nc2ccccc2s1)c1cccc(F)c1: 84% [5 µM] (inactive)
2. Nc1ccccc1NC(=O)c1ccc(NC(=O)C/C=C/c2cccnc2)cc1: 45.1% (inactive)
3. Nc1ncc(-c2ccc3ncnc(N4CCc5cc(F)c(F)cc54)c3c2)cn1: 15.3% (inactive)
4. O=S(=O)(NCCCNc1nccc(-c2[nH]c(-c3ccccc3)nc2-c2ccc(Cl)c(O)c2)n1)c1cccc(F)c1: 56.1% (inactive)
5. CCN1CCN(Cc2ccc(C(=O)Nc3ccc(C)c(Oc4ccc(-c5[nH]nc6ncnc(N)c56)cc4)c3)cc2C(F)(F)F)CC1: 88.3% (inactive)

Shifting focus to the compound that follows.
Task: Recorded growth of CC(Nc1c(C#N)cnc2ccc(-c3cnc(N)nc3)cc12)c1ccccc1 (configuration not stated) , please.
Output: 1.74% (active)

----------
# System: UACC-62 melanoma
# measurement notes: NCI-60 one-dose screen, 48 h (100 = growth as untreated, 0 = no growth, -100 = all killed)
# run conditions: 10 µM unless noted
# Experimental: Growth inhibition of the UACC-62 human tumor cell line is measured as a screen for anti-cancer activity. Cells are grown in 96 well plates and exposed to the test compound for 48 hours. Compounds are tested at a single concentration, which is 10^-5 M for most compounds. The reported endpoint is percent growth (GI% or GIPRCNT), where numbers from 0 - 100% represent growth inhibition, and numbers from -100% - 0 represent cell death. For example, a value of 40 represents 60% growth inhibition. […]
The panel holds about 83,000 compounds, 20% with a hit somewhere; the sample as a whole holds those more often.
So basically: growth at 20% or higher? That is Condition met. Lower than 20%? That is Condition not met.

1) CC(C)(C)n1nnnc1C(Nc1cccc2c1OCO2)c1cc2cccc3ccc4cccc1c4c32 (centres undefined): Condition met

Task: Answer whether growth of Nc1cc(F)ccc1NC(=O)c1ccc(NC(=O)C/C=C/c2cccnc2)cc1 is greater than or equal to 20%.
Output: Condition met

Task: Field entry: COc1cc2oc(-c3cccc(N)c3)cc(=O)c2c(OC)c1OC
Output: Condition met

Task: Field entry: C=C=COc1cccc(/C(N)=N/C(N)=N/c2nc3ccccc3s2)c1
Output: Condition met

Task: Field entry: CC1(C)[C@@H](O)CC[C@]2(C)[C@H]3CC[C@@H]4[C@H]5[C@H](C(=O)/C=C\c6ccncc6)CC[C@]5(O)CC[C@@]4(C)[C@]3(C)CC[C@@H]12
Output: Condition met

Task: Field entry: O=C(CN1CCN(c2cc(=O)n(-c3ccccc3)c3ccccc23)CC1)Nc1cccc(C(F)(F)F)c1
Output: Condition met

Task: Field entry: N#Cc1cnc2ccc(-c3cnc(N)nc3)cc2c1N1CCc2cc(F)c(Cl)cc21
Output: Condition not met

Task: Field entry: CCc1nn2c(C)cc(C)nc2c1Cc1ccc(/C=C/CN2CCN(CCOCCOCCN3CCN(C/C=C/c4ccc(Cc5c(CC)nn6c(C)cc(C)nc56)cc4)CC3)CC2)cc1
Output: Condition not met

Task: Field entry: CCn1c(SCC(=O)Nc2cccc(C(=O)/C=C/c3ccccc3Cl)c2)nc2ccccc2c1=O
Output: Condition met

Task: Field entry: COc1ccc(S(=O)(=O)NCCCNc2nccc(-c3[nH]c(-c4ccccc4)nc3-c3ccc(Cl)c(O)c3)n2)cc1
Output: Condition not met

Task: Field entry: Cc1nn(-c2ccccc2)c2ncnc(N/N=C/c3ccccc3)c12
Output: Condition met

Task: Field entry: COc1ccc(Cn2cc3c(c2-c2cc(OC)c(OC)c(OC)c2)CCc2c(CN4CCCC4)noc2-3)cc1
Output: Condition not met

Task: Field entry: C=C(C=O)[C@@H]1CC[C@]2(COC(C)=O)CC[C@]3(C)C(CC[C@@H]4[C@@]5(C)CC[C@H](OC(C)=O)C(C)(C)[C@@H]5CC[C@]43C)[C@@H]12 (some centres undefined)
Output: Condition not met

Task: Field entry: CCO/C=N/C1=C(C#N)C(c2ccc(F)cc2)c2sc3c(CC)cccc3c2O1 (centres undefined)
Output: Condition not met

Task: Field entry: Nc1nc(-c2cccc([N+](=O)[O-])c2)c(N=Nc2ccc(Br)cc2)s1
Output: Condition not met

Task: Field entry: COc1cc(OC)c(S(N)(=O)=O)cc1C(=O)/C=C/c1ccc(C)cc1
Output: Condition met

Task: Field entry: Oc1cccc2ccc(-c3nnc(SCc4ccc(O)c5ncccc45)o3)nc12
Output: Condition not met

Task: Field entry: C=C(C)[C@@H]1CC[C@]2(COCCCNCCC#N)CC[C@]3(C)[C@H](CC[C@@H]4[C@@]5(C)CC[C@H](OCCCNCCC#N)C(C)(C)[C@@H]5CC[C@]43C)[C@@H]12
Output: Condition met

Task: Field entry: Cc1cccc2c3c(sc12)C(c1ccc(Cl)cc1)c1c(nc(CC(=O)Nc2ccccc2)[nH]c1=O)O3 (centres undefined)
Output: Condition met

Task: Field entry: O=C(NNc1nc2cc(F)ccc2n2c(CO)ccc12)c1cnccn1
Output: Condition not met

Task: Field entry: COc1cccc(/C=C(/C)c2ccc3cccc(OC)c3[o+]2)c1O
Output: Condition met

----------
# Test system: MDA-MB-231 breast
# measurement notes: NCI-60 one-dose screen, 48 h
# run conditions: 10 µM unless noted
The panel holds about 83,000 compounds, 20% with a hit somewhere; the sample as a whole holds those more often. Calls of active or inactive are those of the source. Rule for the calls: active = growth percent below 10; inactive = the rest.
Your answer must be one of the following: y = active, n = inactive

Solved cases (10 shown):
1) CCCn1cnc2c(c1=N)C(c1ccc(F)cc1)c1sc3c(CC)cccc3c1O2 (centres undefined): y
2) C=C(C)[C@@H]1CC[C@]2(COCCCNCCC#N)CC[C@]3(C)[C@H](CC[C@@H]4[C@@]5(C)CC[C@H](OCCCNCCC#N)C(C)(C)[C@@H]5CC[C@]43C)[C@@H]12: n
3) N#Cc1cccc(CN2CCC3=C(C2)C(=O)N(Cc2ccc(Cl)cc2)C2=NCCN23)c1: n
4) CN(C)C(=O)c1cc(-c2ccc3ncnc(NCc4ccccc4)c3c2)cnc1N: n
5) CCOC(=O)C(=O)/C(=C\c1ccc(Cl)cc1)C(=O)N1C(=S)NC(=O)C1CC(C)C (centres undefined): n
6) CCOc1ccc(NC2=C(Cl)C(=O)c3nc(C)ccc3C2=O)cc1: y
7) NC(N)=Nc1ccc(Oc2cccc(Nc3ccc(Cl)cc3)c2)cn1: n
8) Cc1ccc(-c2cc3nc(C(Cl)Cl)nc(-c4ccco4)n3n2)cc1: y
9) C=CCn1c(SCC(=O)Nc2ccc(C(=O)/C=C/c3cccc([N+](=O)[O-])c3)cc2)nnc1-c1c[nH]c2ccccc12: n
10) CCN1CCN(Cc2cn(-c3ccc(S(N)(=O)=O)cc3)nn2)CC1: n

Task: Kindly provide the recorded test outcome for the following molecule: O=C(Cn1cc(-c2ccccc2)nn1)Nc1nc(-c2ccc(Cl)cc2)cs1
Output: n

----------
growth by entry:
# Test system: MDA-MB-231 breast
# measurement notes: NCI-60 one-dose screen, 48 h (100 = growth as untreated, 0 = no growth, -100 = all killed)
# run conditions: 10 µM unless noted
This is part of a sample that, as a whole, favours compounds with a hit. Of some 83,000 tested, about 20% had one in any assay.
Please state the figure in %; there is no need to write the unit.

Task: Recorded growth of O=C(CCn1c[n+](CC(=O)c2ccc(-c3ccccc3)cc2)c2ccccc21)Nc1cccc2cccnc12 , please.
Output: 49.6

Task: Field entry: Nc1ncc(-c2ccc3ncnc(N4CCc5cc(F)c(Cl)cc54)c3c2)cn1
Output: 0.108

Task: Field entry: Cc1ccc(-c2cc3nc(C(Cl)Cl)nc(-c4cccs4)n3n2)cc1
Output: 41.6

Task: Field entry: COc1ccc([C@H]2c3[nH]c4ccccc4c3C[C@H]3C(=O)N(C4CCN(Cc5c(Cl)cccc5Cl)CC4)CC(=O)N23)c(OC)c1
Output: 93

----------
# Tested on: CCRF-CEM leukemia
# measurement notes: NCI-60 one-dose screen, 48 h (100 = growth as untreated, 0 = no growth, -100 = all killed)
# run conditions: 10 µM unless noted
This is part of a sample that, as a whole, favours compounds with a hit. Of some 83,000 tested, about 20% had one in any assay. Active and inactive are the calls of the source. Rule for the calls: active = growth percent below 10; inactive = the rest.
readout label: growth

1. O=C(Nc1nonc1-c1ccccc1)c1ccc(C(F)(F)F)cc1: 50.8% (inactive)
2. Cn1ccnc1C(=O)/C=C/c1ccc(CNC(=O)c2ccc(S(F)(F)(F)(F)F)cc2)cc1: 2.63% (active)
3. Oc1cccc2ccc(-c3nnc(SCc4ccc(O)c5ncccc45)o3)nc12: 19.6% (inactive)
4. O=C(Cn1cc[n+](CC(=O)c2ccc(-c3ccccc3)cc2)c1)Nc1cccc2cccnc12: 64.9% (inactive)
5. O=C(CNc1nc(-c2cccc([N+](=O)[O-])c2)cs1)Nc1cccc(Cl)c1: 103% (inactive)
6. CCCCCc1ccc(S(=O)(=O)Nc2cccc(-c3csc(NC(=O)CN4CCN(CCO)CC4)n3)c2)cc1: 53.8% (inactive)
7. COc1c(N2CC3CCCNC3C2)c(F)cc2c(=O)c(C(=O)N/N=C/c3ccc4c(c3)OCO4)cn(C3CC3)c12 (stereo not given): 31.7% (inactive)
8. CCN1CCN(Cc2cn(-c3ccc(S(N)(=O)=O)cc3)nn2)CC1: 104% (inactive)

Task: Recorded growth of NS(=O)(=O)c1ccc(Nc2nc(N/N=C/c3ccc(Cl)cc3)nc(Nc3ccccc3)n2)cc1 , please.
Output: 19.4% (inactive)

Task: Field entry: CCn1c(SCC(=O)Nc2cccc(C(=O)/C=C/c3ccc(Br)cc3)c2)nc2ccccc2c1=O
Output: 75% (inactive)

Task: Field entry: Cc1ccc(NC(=O)N[C@@H](Cc2cc(F)cc(F)c2)C(=O)NC2C(=O)N3C[C@H](O)C[C@H]3C(=O)N3CCCC[C@H]3C(=O)N[C@@H](CO)C(=O)N3C[C@H](C)C[C@H]3C(=O)O[C@H]2C)c(F)c1 (stereo not given in full)
Output: 35.1% (inactive)

Task: Field entry: CCCn1cnc2c(c1=N)C(c1ccc(OC)cc1)c1sc3c(CC)cccc3c1O2 (stereo not given)
Output: 4.77% (active)

Task: Field entry: CCn1c2ccccc2c2cc(-n3nncc3-c3ccccc3)ccc21
Output: 19.5% (inactive)

Task: Field entry: CCCC(=O)NC(c1cccnc1)c1cc(C(C)(C)C)c2cccnc2c1O (stereo not given)
Output: 9.16% (active)
